experiment: gradient 5% acetonitrile 3 min, to 50% in 2 min, to 85% in 15 min, held 3 min, 100 µL/min; details: column: Zorbax Extend-C18 2.1 x 50 mm; eluents: water / acetonitrile, 0.1% formic acid
Entry flag: criterion met if RP-LC retention time reaches 700 s; criterion not met if it does not.

Study these solved cases before continuing.
Prompt line: Is RP-LC retention time for CCn1c(C)nc2c1CN(CC(=O)NCCCN1CCCc3ccccc31)CC2 at or above 700 s?
Response line: criterion not met

Prompt line: Is RP-LC retention time for Cc1cc(C)cc(-c2nnc3ccc(Cl)nn23)c1 at or above 700 s?
Response line: criterion met

Prompt line: Is RP-LC retention time for CC1CCN(C(=O)C2CCN(c3ccc4nnc(-c5ccccc5)n4n3)CC2)CC1 at or above 700 s?
Response line: criterion met

Now look at this one.
Prompt line: Is RP-LC retention time for O=C(NCc1ccc(-n2ccnc2)cc1)c1ccccc1C(F)(F)F at or above 700 s?
Response line: criterion not met

---

Kindly state RP-LC retention time for each of the entries shown.
experiment: gradient 5% acetonitrile 3 min, to 50% in 2 min, to 85% in 15 min, held 3 min, 100 µL/min; details: column: Zorbax Extend-C18 2.1 x 50 mm; eluents: water / acetonitrile, 0.1% formic acid
Numbers only, in s.

Value sought for every listed molecule: RP-LC retention time.
1. CCC(C)NC(=O)c1nnc(-c2ccc(S(=O)(=O)N3CCOCC3)cc2)o1 (stereo not given)
2. CCCCNC(=O)c1ccc2c(c1)N(C)C(=O)C1CCCCN21 (stereo not given)
3. CCOc1ccc(NC(=O)c2cn(C)nc2S(=O)(=O)N2CCC(C)CC2)cc1
4. COc1ccccc1OCC(=O)NCC1(c2cccs2)CCCC1
5. COCCCNC(=O)CSc1nccc2c1ccn2Cc1ccccc1
6. O=C(NCCC1=CCCCC1)C1CCN(C(=O)c2cccn2-c2cccnc2)CC1
7. COc1ccc(S(=O)(=O)N2CCCC(C(=O)Nc3cccc(SC)c3)C2)cc1Cl (stereo not given)

Response line:
1: 787; 2: 813; 3: 1060; 4: 557; 5: 683; 6: 1090; 7: 1060

Value sought for every listed molecule: RP-LC retention time.
1. O=S(=O)(Nc1ccc(F)cc1)c1ccc2c(c1)-c1oncc1CO2
2. Cc1nn(-c2cc(N3CCCC3)ncn2)c(C)c1CCC(=O)NCc1ccc2c(c1)OCO2
3. Cc1cc(-c2nnc(NC(=O)C3CCCN(S(=O)(=O)c4cccs4)C3)o2)nn1C (stereo not given)

Response line:
1. 866
2. 921
3. 696

---

test: gradient 5% acetonitrile 3 min, to 50% in 2 min, to 85% in 15 min, held 3 min, 100 µL/min; settings: column: Zorbax Extend-C18 2.1 x 50 mm; eluents: water / acetonitrile, 0.1% formic acid
Kindly state RP-LC retention time for each of the entries shown.
Numbers only, in s.

Guide cases for RP-LC retention time, answers given:
Prompt line: May I ask what RP-LC retention time has been recorded for CCc1cc(-c2csc(S(=O)(=O)N3CCN(Cc4ccc5c(c4)OCO5)CC3)c2)on1 ?
Response line: 753

Prompt line: May I ask what RP-LC retention time has been recorded for O=C(C1CCCO1)N1CCC(OCc2nc(C3CC3)no2)CC1 (stereo not given) ?
Response line: 635

Value sought for every listed compound: RP-LC retention time.
1. Cc1ccc(CN2CCN(CC(C)C(=O)NCc3ccc(F)cc3F)C(=O)C2=O)cc1 (stereo not given)
2. CC(C)n1cnc(S(=O)(=O)N2CCCC(C(=O)Nc3cccc(Cl)c3)C2)c1 (stereo not given)

Response line:
1. 755
2. 842

Value sought for every listed compound: RP-LC retention time.
1. O=C(Nc1cc(F)cc(F)c1)N1CCCN(C2CCN(Cc3ccc(F)cc3)C2=O)CC1 (stereo not given)
2. CCOC(=O)c1c(S(=O)(=O)NCC(=O)N2CCN(c3ccccn3)CC2)c(C)n(C)c1C
3. Cc1ccnc(N2CCC(C(=O)Nc3ccc(Br)cc3)CC2)n1
4. CCNC(=O)c1cc(C)nc2ccc(C)cc12
5. O=C(O)c1ccc(OCCOc2ccccc2)cc1
6. CCn1c(=O)c(N2CCC(C(=O)NCCc3c[nH]c4ccc(OC)cc34)CC2)nc2cccnc21

Response line:
1: 688; 2: 618; 3: 784; 4: 568; 5: 916; 6: 864
